Parameter solubility: see the listing below.
test: Aqueous solubility in pH 7.4 0.05 M phosphate buffer by HPLC method; assay type: physicochemical

Below, 2 compounds whose answers are already recorded.
# Smiles input, solubility
measured = [
    ("CC(C)N1CCC(C(=O)Nc2ccccc2OCc2cc(-c3ccc(Cl)s3)on2)CC1", "530 µM"),
    ("CC(C)N1CCC(C(=O)Nc2c(OCCCO[C@@H]3O[C@H](CO)[C@@H](O)[C@H](O)[C@H]3O)cccc2OCc2cc(-c3ccc(Cl)s3)on2)CC1", "7330 µM"),
]

Inquiry: Endpoint output: solubility of CC(=O)OC[C@H]1O[C@@H](OCCCOc2cccc(OCc3cc(-c4ccc(Cl)s4)on3)c2NC(=O)C2CCN(C(C)C)CC2)[C@H](OC(C)=O)[C@@H](OC(C)=O)[C@@H]1OC(C)=O . Value?
Reply text: < 1 µM

====

assay: Stability in human plasma assessed as unhydrolyzed compound after 4 hrs at 37 degC by HPLC method; type: ADME, cell-free; conditions: read-out: Stability
Readout kind: remaining at 4 h

# Smiles input, remaining at 4 h
measured = [
    ("CC(C)N1CCC(C(=O)Nc2c(OCCCO[C@@H]3O[C@H](CO)[C@@H](O)[C@H](O)[C@H]3O)cccc2OCc2cc(-c3ccc(Cl)s3)on2)CC1", "> 90%"),
]

Switching to the query record.
Inquiry: What measured remaining at 4 h goes with CC(C)N1CCC(C(=O)Nc2ccccc2OCc2cc(-c3ccc(Cl)s3)on2)CC1 ?
Reply text: > 90%

====

Quick list: pEC50 per entry.
tested on: Plasma; experiment: Profibrinolytic activity in tissue factor-induced human plasma exposed to exogenous tissue plasminogen activator assessed as time needed to lyse 50% fibrin clot by turbidimetric assay; assay type: functional, cell-free; conditions: Homo sapiens, Plasma; read-out: EC50
Keep in mind that pEC50 stands for -log10 of concentration in molar terms.

# annotated cases, reported pEC50 shown
# Compound, Recorded value
measured = [
    ("CC(=O)OC[C@H]1O[C@@H](OCCCOc2cccc(OCc3cc(-c4ccc(Cl)s4)on3)c2NC(=O)C2CCN(C(C)C)CC2)[C@H](OC(C)=O)[C@@H](OC(C)=O)[C@@H]1OC(C)=O", 5.74),
    ("CC(C)N1CCC(C(=O)Nc2c(OCCCO[C@@H]3O[C@H](CO)[C@@H](O)[C@H](O)[C@H]3O)cccc2OCc2cc(-c3ccc(Cl)s3)on2)CC1", 6.52),
]

Inquiry: Return reported pEC50; argument: CC1CNc2c(cccc2S(=O)(=O)N[C@@H](CCCNC(=N)N)C(=O)N2CC[C@@H](C)C[C@@H]2C(=O)O)C1 (stereo partly drawn)
Reply text: 6.22

====

molecular target: Prothrombin (Bos taurus, UniProt P00735); experiment: Inhibition of bovine thrombin assessed as reduction in hydrolysis of chromogenic substrate S-2238 by Cheng-Prusoff equation analysis
Readout kind: pKi
To interpret pKi, take it as minus log10 of a concentration measured in moles per litre.

# Smiles input, pKi
rows = [
    ("CC(=O)OC[C@H]1O[C@@H](OCCCOc2cccc(OCc3cc(-c4ccc(Cl)s4)on3)c2NC(=O)C2CCN(C(C)C)CC2)[C@H](OC(C)=O)[C@@H](OC(C)=O)[C@@H]1OC(C)=O", 6.80),
]

Inquiry: Recorded pKi of CC(C)N1CCC(C(=O)Nc2c(OCCCO[C@@H]3O[C@H](CO)[C@@H](O)[C@H](O)[C@H]3O)cccc2OCc2cc(-c3ccc(Cl)s3)on2)CC1 , please.
Reply text: 7.00

Inquiry: Also need Nc1c(OCCCO)cccc1OCc1cc(-c2ccc(Cl)s2)on1 , thanks.
Reply text: 4.53

Inquiry: Same question for Nc1ccccc1OCc1cc(-c2ccc(Cl)s2)on1 please.
Reply text: 4.51

Inquiry: Also check Nc1c(OCCCO[C@@H]2O[C@H](CO)[C@@H](O)[C@H](O)[C@H]2O)cccc1OCc1cc(-c2ccc(Cl)s2)on1
Reply text: 3.88
